Cited source for all entries: ChEMBL document CHEMBL3994568

test system: Aspergillus flavus; experiment: Antifungal activity against Aspergillus flavus ATCC 204304 after 24 hrs by two-fold microbroth dilution method; format: functional; settings: ATCC 204304, 24 h
Listed here are molecules together with their documented MIC.
Write the answer as a number in µg/mL, unit excluded.

These solved cases illustrate the format of a correct answer.
What value of MIC has been reported for the following molecule? CCCCCCCCCCn1c2ccc(C(=O)CCl)cc2c2cc(C(=O)CCl)ccc21
512

Similarly, CCCn1c2ccc(C(=O)CCl)cc2c2cc(C(=O)CCl)ccc21 ?
512

Similarly, CCCCCCCCCCn1c2ccc(-c3csc(N)n3)cc2c2cc(-c3csc(N)n3)ccc21 ?
128

Similarly, CCCn1c2ccc(-c3csc(N)n3)cc2c2cc(-c3csc(N)n3)ccc21 ?
256

More entries:
What value of MIC has been reported for the following molecule? CCCCCCCCCCCCCCCCCCn1c2ccc(C(=O)CCl)cc2c2cc(C(=O)CCl)ccc21
256

Similarly, CCCCCCCCCCCCCCCCCCn1c2ccc(-c3csc(N)n3)cc2c2cc(-c3csc(N)n3)ccc21 ?
256
